Molecular target: Abeta monomers (Homo sapiens, UniProt P05067)
Construct: incubate with FITC Abeta monomers, oligomers, fibrils and FITC for 1 hour at room temperature
Sequence (P05067 672-713 limits assumed): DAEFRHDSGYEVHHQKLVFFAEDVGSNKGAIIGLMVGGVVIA
Assay: Peptide microarray, binding of FITC Abeta monomers to immobilized peptides
Conditions: peptide microarray, FITC Abeta, 1 hour at room temperature, control subtracted, averaged
[ ]: non-standard residue; d: D form. dPhg = N[C@@H](C(=O)O)c1ccccc1
measured.parameter: Binding signal to Abeta monomers
Report as: number unit

May I ask what Binding signal to Abeta monomers has been recorded for rkrirl06yhikr (H-[dR][dK][dR][dI][dR][dL][dPhg][dY][dH][dI][dK][dR]-NH2; SMILES CC[C@@H](C)[C@@H](NC(=O)[C@@H](Cc1c[nH]cn1)NC(=O)[C@@H](Cc1ccc(O)cc1)NC(=O)[C@H](NC(=O)[C@@H](CC(C)C)NC(=O)[C@@H](CCCNC(=N)N)NC(=O)[C@H](NC(=O)[C@@H](CCCNC(=N)N)NC(=O)[C@@H](CCCCN)NC(=O)[C@H](N)CCCNC(=N)N)[C@H](C)CC)c1ccccc1)C(=O)N[C@H](CCCCN)C(=O)N[C@H](CCCNC(=N)N)C(N)=O) [ANK17, D3 derivative; 06: Phenylglycine (D)] ?
4.7 rfu
